Target: T1, human complement component C5 (human, UniProt P01031 19-673; P01031 678-1676)
T1 construct: mature; Mature C5 is a disulphide-linked beta and alpha chain cut from one precursor; Terbium-labelled in the FRET assays, biotinylated in part of the phage ELISA; also called human C5; C5-Tb
T1 sequence (P01031 19-673 limits assumed, chain 1 of 2): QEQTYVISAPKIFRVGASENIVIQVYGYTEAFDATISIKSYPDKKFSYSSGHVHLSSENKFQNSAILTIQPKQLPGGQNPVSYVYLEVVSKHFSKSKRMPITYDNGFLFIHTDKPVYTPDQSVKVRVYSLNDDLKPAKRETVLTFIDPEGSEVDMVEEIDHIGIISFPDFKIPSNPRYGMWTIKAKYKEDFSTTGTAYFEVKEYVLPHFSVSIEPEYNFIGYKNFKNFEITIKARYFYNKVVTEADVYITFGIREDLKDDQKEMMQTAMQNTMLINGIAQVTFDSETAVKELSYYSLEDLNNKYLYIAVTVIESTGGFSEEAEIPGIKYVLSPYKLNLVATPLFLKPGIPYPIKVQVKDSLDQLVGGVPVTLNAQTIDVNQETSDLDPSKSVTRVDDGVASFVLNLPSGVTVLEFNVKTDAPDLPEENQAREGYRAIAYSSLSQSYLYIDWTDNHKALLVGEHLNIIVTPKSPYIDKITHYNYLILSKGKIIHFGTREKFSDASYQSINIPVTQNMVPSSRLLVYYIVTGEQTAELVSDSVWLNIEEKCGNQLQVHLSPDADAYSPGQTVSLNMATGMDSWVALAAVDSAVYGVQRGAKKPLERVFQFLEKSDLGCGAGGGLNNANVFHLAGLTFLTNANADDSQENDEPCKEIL
T1 sequence (P01031 678-1676 limits assumed, chain 2 of 2): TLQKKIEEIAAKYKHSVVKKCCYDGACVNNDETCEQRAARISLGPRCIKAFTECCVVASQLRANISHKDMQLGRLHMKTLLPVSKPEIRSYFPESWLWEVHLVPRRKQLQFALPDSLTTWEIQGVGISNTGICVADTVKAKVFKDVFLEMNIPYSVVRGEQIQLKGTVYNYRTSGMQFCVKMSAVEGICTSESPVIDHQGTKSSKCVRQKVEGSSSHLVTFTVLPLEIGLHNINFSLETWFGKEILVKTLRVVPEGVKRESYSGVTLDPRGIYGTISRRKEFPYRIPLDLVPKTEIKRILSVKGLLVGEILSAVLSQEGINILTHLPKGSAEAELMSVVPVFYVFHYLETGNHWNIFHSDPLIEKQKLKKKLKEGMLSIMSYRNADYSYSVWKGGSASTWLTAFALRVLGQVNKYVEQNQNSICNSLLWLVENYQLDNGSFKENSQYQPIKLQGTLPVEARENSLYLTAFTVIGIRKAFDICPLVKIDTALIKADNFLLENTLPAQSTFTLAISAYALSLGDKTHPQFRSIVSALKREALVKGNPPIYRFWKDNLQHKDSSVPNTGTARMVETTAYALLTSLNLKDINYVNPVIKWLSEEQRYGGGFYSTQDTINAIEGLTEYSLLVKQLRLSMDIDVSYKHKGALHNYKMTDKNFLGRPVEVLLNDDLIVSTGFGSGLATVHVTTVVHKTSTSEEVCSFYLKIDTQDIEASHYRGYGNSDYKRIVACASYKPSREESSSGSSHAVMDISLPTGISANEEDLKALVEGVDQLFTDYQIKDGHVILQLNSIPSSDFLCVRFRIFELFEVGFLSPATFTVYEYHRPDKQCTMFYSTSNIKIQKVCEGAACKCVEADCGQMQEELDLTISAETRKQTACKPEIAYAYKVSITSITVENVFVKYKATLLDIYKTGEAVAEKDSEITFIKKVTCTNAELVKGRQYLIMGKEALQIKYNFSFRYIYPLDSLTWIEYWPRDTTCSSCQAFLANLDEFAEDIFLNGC
Test: SPR multi-cycle kinetics, human C5 immobilised, mean of n=3
Ends that are not written are not given here. * marks the point of attachment. Palmitoyl = CCCCCCCCCCCCCCCC(=O)*
Hi! Could you tag entries with Kd below 10 nM as true (1), and those at or above as false (0)? Much appreciated.

See these solved cases before continuing.
| binder | cat |
| --- | --- |
| GCPPGYKSGVDCSPGSECKWGCYAVDGRRYGGYGADSGVGS [K57chemFE knob domain peptide] | true (1) |
| TCPEGWSECGVAIYGYECGRWGCGHFLNSGPNISPYVST (also called chemical K92) [K92chemFE knob domain peptide] | true (1) |
| cyclo(VCPDGFNWGYGCAAGSSRFCTRHDWCCYDERADSHTYGFCTGNRV) (also: disulphides formed by free energy method, pairing not given here, Head-to-tail cyclised K8chemFE) [K8 chemFE cyclic] | false (0) |
| Palmitoyl-GCPPGYKSGVDCSPGSECKWGCYAVDGRRYGGYGADSGVGS (also: disulphides formed by free energy method, pairing not given here) [K57chemFE-Palmitoyl] | true (1) |

As a next step, examine the binder that follows.
Consider the binder VCPDGFNWGYGCAAGSSRFCTRHDWCCYDERADSHTYGFCTGNRV (disulfide (positions not given here); not fully specified, Disulphides formed in glutathione redox buffer; also called K8chemFE; K8chem) [K8 knob domain peptide, chemically synthesised, free energy method] . Is its Kd strictly less than 10 nM? true (1)
